Give measured AUC of dose-response viability curve for each item. Keep answers brief.
# Tested on: ACHN
# Assay comment: AUC of dose-response viability curve, drug + dasatinib, normalised to DMSO (arbitrary (AUC of normalised viability)); higher = less growth inhibition
# Experimental parameters: treatment: drug + dasatinib (fixed dose, not stated); 5 days
One number for each entry.

Could you report AUC of dose-response viability curve for every entry in the following list?
1. NC(=O)Nc1sc(-c2ccc(F)cc2)cc1C(N)=O [TPCA-1] + Cc1nc(Nc2ncc(C(=O)Nc3c(C)cccc3Cl)s2)cc(N2CCN(CCO)CC2)n1
2. CC[C@@H]1C(=O)N(C)c2cnc(Nc3ccc(C(=O)N[C@H]4CC[C@H](N5CCN(CC6CC6)CC5)CC4)cc3OC)nc2N1C(C)C [BI6727 (Volasertib)] + Cc1nc(Nc2ncc(C(=O)Nc3c(C)cccc3Cl)s2)cc(N2CCN(CCO)CC2)n1
3. CCn1c(-c2nonc2N)nc2c(C#CC(C)(C)O)ncc(OC[C@H]3CCCNC3)c21 + Cc1nc(Nc2ncc(C(=O)Nc3c(C)cccc3Cl)s2)cc(N2CCN(CCO)CC2)n1
4. CCC(=O)N1CCN(c2ccc(-n3c(=O)ccc4cnc5ccc(-c6cnc7ccccc7c6)cc5c43)cc2C(F)(F)F)CC1 [Torin 1] + Cc1nc(Nc2ncc(C(=O)Nc3c(C)cccc3Cl)s2)cc(N2CCN(CCO)CC2)n1

Reply:
1: 1.7; 2: 1.13; 3: 1.8; 4: 0.722

---

Give measured GI50 of drug for each item. Keep answers brief.
# System: ACHN
# Assay comment: GI50 of drug in presence of dasatinib; higher = less potent
# Experimental parameters: treatment: drug + dasatinib (fixed dose, not stated); 5 days
Give bare numbers, in nM.

Example results:
FC(F)(F)c1ccc(Nc2nc3cc(Oc4ccnc(-c5ncc(C(F)(F)F)[nH]5)c4)ccc3[nH]2)cc1 [Raf265 derivative] + Cc1nc(Nc2ncc(C(=O)Nc3c(C)cccc3Cl)s2)cc(N2CCN(CCO)CC2)n1; 3300
CCc1cc2c(cc1N1CCC(N3CCOCC3)CC1)C(C)(C)c1[nH]c3cc(C#N)ccc3c1C2=O + Cc1nc(Nc2ncc(C(=O)Nc3c(C)cccc3Cl)s2)cc(N2CCN(CCO)CC2)n1; 659
Cc1cnc(NC(=O)Nc2cc(Br)c(C)cc2OC[C@@H]2CNCCO2)cn1 + Cc1nc(Nc2ncc(C(=O)Nc3c(C)cccc3Cl)s2)cc(N2CCN(CCO)CC2)n1; 36.9

Could you report GI50 of drug for every entry in the following list?
1. CN1CCN(c2cccc(Nc3nc4c(-c5ccc(S(C)(=O)=O)cc5)cccn4n3)c2)CC1 + Cc1nc(Nc2ncc(C(=O)Nc3c(C)cccc3Cl)s2)cc(N2CCN(CCO)CC2)n1
2. CC[C@@H]1C(=O)N(C)c2cnc(Nc3ccc(C(=O)NC4CCN(C)CC4)cc3OC)nc2N1C1CCCC1 [BI 2536] + Cc1nc(Nc2ncc(C(=O)Nc3c(C)cccc3Cl)s2)cc(N2CCN(CCO)CC2)n1
3. Cc1nc(N)sc1-c1ccnc(Nc2ccc(N3CCOCC3)cc2)n1 [CYC116] + Cc1nc(Nc2ncc(C(=O)Nc3c(C)cccc3Cl)s2)cc(N2CCN(CCO)CC2)n1

Reply:
3.78
4.47
137

Could you report GI50 of drug for every entry in the following list?
1. S=C(NCc1ccc2c(c1)OCO2)N1CCN(c2ncnc3c2oc2ccccc23)CC1 [Amuvatinib (MP-470)_R2] + Cc1nc(Nc2ncc(C(=O)Nc3c(C)cccc3Cl)s2)cc(N2CCN(CCO)CC2)n1
2. CCc1cnn2c(NCc3ccc[n+]([O-])c3)cc(N3CCCC[C@H]3CCO)nc12 + Cc1nc(Nc2ncc(C(=O)Nc3c(C)cccc3Cl)s2)cc(N2CCN(CCO)CC2)n1

Reply:
1. 1230
2. 3.94

---

# System: SN12C
# Assay comment: AUC of dose-response viability curve, drug + dasatinib, normalised to DMSO (arbitrary (AUC of normalised viability)); higher = less growth inhibition
# Experimental parameters: treatment: drug + dasatinib (fixed dose, not stated); 5 days
Reported endpoint: AUC of dose-response viability curve

Example results:
NC(=O)c1ccc(N(C(N)=O)c2c(F)cccc2F)nc1-c1ccc(F)cc1F [VX-702] + Cc1nc(Nc2ncc(C(=O)Nc3c(C)cccc3Cl)s2)cc(N2CCN(CCO)CC2)n1; 2.54
O=C(NCc1ccccc1)c1csc(Nc2ccncn2)n1 [Thiazovivin] + Cc1nc(Nc2ncc(C(=O)Nc3c(C)cccc3Cl)s2)cc(N2CCN(CCO)CC2)n1; 2.56
Cn1cnc2c(F)c(Nc3ccc(Br)cc3Cl)c(C(=O)NOCCO)cc21 [AZD6244 (Selumetinib)] + Cc1nc(Nc2ncc(C(=O)Nc3c(C)cccc3Cl)s2)cc(N2CCN(CCO)CC2)n1; 1.84

Could you report AUC of dose-response viability curve for every entry in the following list?
1. O=C1c2ccccc2-c2n[nH]c3cccc1c23 + Cc1nc(Nc2ncc(C(=O)Nc3c(C)cccc3Cl)s2)cc(N2CCN(CCO)CC2)n1
2. CNC(=O)c1c(F)cccc1Nc1nc(Nc2cc3c(cc2OC)CCN3C(=O)CN(C)C)nc2[nH]ccc12 + Cc1nc(Nc2ncc(C(=O)Nc3c(C)cccc3Cl)s2)cc(N2CCN(CCO)CC2)n1
3. COc1ccc(COc2cc3oc(=O)c4cc(C(C)O)ccc4c3cc2OC)cc1 (configuration not stated) [Palomid 529] + Cc1nc(Nc2ncc(C(=O)Nc3c(C)cccc3Cl)s2)cc(N2CCN(CCO)CC2)n1
4. Cc1ccc(NC(=O)c2ccc(CN3CCN(C)CC3)cc2)cc1Nc1nccc(-c2cccnc2)n1 [Imatinib (Gleevec)] + Cc1nc(Nc2ncc(C(=O)Nc3c(C)cccc3Cl)s2)cc(N2CCN(CCO)CC2)n1
5. CCn1cc(-c2ccnc3[nH]c(-c4cccc(CN(C)C)c4)cc23)c(-c2ccc(NC(=O)N(C)C)cc2)n1 + Cc1nc(Nc2ncc(C(=O)Nc3c(C)cccc3Cl)s2)cc(N2CCN(CCO)CC2)n1
6. C#Cc1cccc(Nc2ncnc3cc(OCCOC)c(OCCO)cc23)c1 + Cc1nc(Nc2ncc(C(=O)Nc3c(C)cccc3Cl)s2)cc(N2CCN(CCO)CC2)n1

Reply:
[2.5, 2.11, 2.53, 2.55, 1.61, 2.43]

Could you report AUC of dose-response viability curve for every entry in the following list?
1. COc1cc(Nc2ncc(F)c(Nc3ccc4c(n3)N(COP(=O)([O-])[O-])C(=O)C(C)(C)O4)n2)cc(OC)c1OC.[Na+].[Na+] + Cc1nc(Nc2ncc(C(=O)Nc3c(C)cccc3Cl)s2)cc(N2CCN(CCO)CC2)n1
2. COc1ccc(-c2ccc3c(N4CCOC[C@@H]4C)nc(N4CCOC[C@@H]4C)nc3n2)cc1CO [AZD8055] + Cc1nc(Nc2ncc(C(=O)Nc3c(C)cccc3Cl)s2)cc(N2CCN(CCO)CC2)n1
3. CN(C)C/C=C/C(=O)Nc1cc2c(Nc3ccc(F)c(Cl)c3)ncnc2cc1O[C@H]1CCOC1 [Afatinib (BIBW2992)] + Cc1nc(Nc2ncc(C(=O)Nc3c(C)cccc3Cl)s2)cc(N2CCN(CCO)CC2)n1
4. CC(C)c1ccccc1Cc1cc(C(=O)Nc2ccc(S(=O)(=O)c3ccccc3C(C)(C)C)cc2)c(O)c(O)c1O [TW-37] + Cc1nc(Nc2ncc(C(=O)Nc3c(C)cccc3Cl)s2)cc(N2CCN(CCO)CC2)n1

Reply:
1. 2.03
2. 1.3
3. 2.02
4. 2.6

---

# Tested on: ACHN
# Assay comment: GI50 of drug in presence of dasatinib; higher = less potent
# Experimental parameters: treatment: drug + dasatinib (fixed dose, not stated); 5 days
Reported endpoint: GI50 of drug

CNC(=O)c1ccccc1Sc1ccc2c(/C=C/c3ccccn3)n[nH]c2c1 [Axitinib] + Cc1nc(Nc2ncc(C(=O)Nc3c(C)cccc3Cl)s2)cc(N2CCN(CCO)CC2)n1; 2980 nM
Nc1cccc(-c2cc3c(Oc4cccc(O)c4)ncnc3[nH]2)c1 [TWS119] + Cc1nc(Nc2ncc(C(=O)Nc3c(C)cccc3Cl)s2)cc(N2CCN(CCO)CC2)n1; 287 nM
COc1ccc2cc(-c3[nH]c(-c4ccc(S(C)=O)cc4)nc3-c3ccncc3)ccc2c1 (stereo not given) [Tie2 kinase inhibitor] + Cc1nc(Nc2ncc(C(=O)Nc3c(C)cccc3Cl)s2)cc(N2CCN(CCO)CC2)n1; > 10000 nM
Cc1cc(C(=O)NOCCO)c(Nc2ccc(I)cc2F)n(C)c1=O [AZD8330] + Cc1nc(Nc2ncc(C(=O)Nc3c(C)cccc3Cl)s2)cc(N2CCN(CCO)CC2)n1; < 3 nM

Proceed to the following item.
Memo: O=C1NC(=O)/C(=C/c2ccc(-c3ccc(F)cc3O)o2)S1 + Cc1nc(Nc2ncc(C(=O)Nc3c(C)cccc3Cl)s2)cc(N2CCN(CCO)CC2)n1 , reported GI50 of drug: > 10000 nM

---

# System: UO-31
# Assay comment: minimum viability across doses, drug + dasatinib, relative to DMSO (fraction); higher = less growth inhibition
# Experimental parameters: treatment: drug + dasatinib (fixed dose, not stated); 5 days
Reported endpoint: minimum viability across doses
One number for each entry.

CNC(=O)CN1CCC(Oc2cc3c(Nc4cccc(Cl)c4F)ncnc3cc2OC)CC1 [AZD8931] + Cc1nc(Nc2ncc(C(=O)Nc3c(C)cccc3Cl)s2)cc(N2CCN(CCO)CC2)n1; 0.344

Could you report minimum viability across doses for every entry in the following list?
1. CC(=O)Nc1nc(C)c(-c2ccc(Cl)c(S(=O)(=O)NCCO)c2)s1 [PIK-93] + Cc1nc(Nc2ncc(C(=O)Nc3c(C)cccc3Cl)s2)cc(N2CCN(CCO)CC2)n1
2. Nc1nc(N)c2nc(-c3cccc(O)c3)c(-c3cccc(O)c3)nc2n1 [TG100-115] + Cc1nc(Nc2ncc(C(=O)Nc3c(C)cccc3Cl)s2)cc(N2CCN(CCO)CC2)n1
3. CCCCCCCCCCCCc1ccc(S(=O)(=O)Nc2nncs2)cc1 [PHT-427] + Cc1nc(Nc2ncc(C(=O)Nc3c(C)cccc3Cl)s2)cc(N2CCN(CCO)CC2)n1
4. COc1cc2nccc(Oc3ccc(NC(=O)Nc4ccc(F)cc4F)c(F)c3)c2cc1OC [Ki8751] + Cc1nc(Nc2ncc(C(=O)Nc3c(C)cccc3Cl)s2)cc(N2CCN(CCO)CC2)n1
5. C[C@]1(O)C[C@@H](c2nc(-c3ccc4ccc(-c5ccccc5)nc4c3)c3c(N)nccn32)C1 [Linsitinib (OSI-906)] + Cc1nc(Nc2ncc(C(=O)Nc3c(C)cccc3Cl)s2)cc(N2CCN(CCO)CC2)n1
6. O=C1CCC(N2C(=O)c3ccccc3C2=O)C(=O)N1 (centres undefined) [Thalidomide] + Cc1nc(Nc2ncc(C(=O)Nc3c(C)cccc3Cl)s2)cc(N2CCN(CCO)CC2)n1
7. CN1CC[C@H](c2c(O)cc(O)c3c(=O)cc(-c4ccccc4Cl)oc23)[C@H](O)C1.Cl [Flavopiridol hydrochloride] + Cc1nc(Nc2ncc(C(=O)Nc3c(C)cccc3Cl)s2)cc(N2CCN(CCO)CC2)n1
8. CCN1CCN(Cc2ccc(-c3cc4c(N[C@H](C)c5ccccc5)ncnc4[nH]3)cc2)CC1 [AEE788 (NVP-AEE788)] + Cc1nc(Nc2ncc(C(=O)Nc3c(C)cccc3Cl)s2)cc(N2CCN(CCO)CC2)n1

Reply:
0.0793
1.03
1.13
0.735
0.647
1.03
0.00894
0.00751
